experiment: HCV replicon assay (luciferase reporter, ET cell line); type: cell-based; settings: Hepatitis C virus, HCV replicon luciferase activity in ET cells
Label t when inhibition at 10 µM >= 80%; otherwise f.

[[record]]
compound = "CN(C)S(=O)(=O)c1ccccc1C1=CCN(C(=O)c2nc3c(C(F)(F)F)cc(-c4ccoc4)cn3c2Cl)CC1 [Compound 577]"
group_label = "f"

[[record]]
compound = "FC(F)(F)c1cc(-c2ccco2)cn2c(Cl)c(-c3nc(Cc4ccccc4)no3)nc12 [Compound 656]"
group_label = "f"

[[record]]
compound = "O=C(c1nc2c(C(F)(F)F)cc(-c3ccoc3)cn2c1-c1ccoc1)N1CCC(c2ccc(F)cc2)C1 (stereo not shown) [Compound 254]"
group_label = "f"

[[record]]
compound = "O=C(NCc1cccs1)c1[nH]c2c(Cl)cc(-c3ccccc3)cc2c1Cl [Compound 110]"
group_label = "f"


Enquiry: Does CC(C)S(=O)(=O)NC1CN(C(=O)c2nc3c(C(F)(F)F)cc(-c4ccoc4)cn3c2Cl)C1 [Compound 497] have a reported inhibition at 10 µM of at least 80%?
Return: t

Enquiry: Is inhibition at 10 µM at least 80%? Consider O=C(c1nc2c(C(F)(F)F)cc(-c3ccoc3)cn2c1Cl)N1CCC=C(c2cscn2)C1 [Compound 589]
Return: f

Enquiry: Is inhibition at 10 µM at least 80%? Consider Cn1cncc1CNC(=O)c1nc2c(C(F)(F)F)cc(-c3ccco3)cn2c1Cl [Compound 327]
Return: t

---

experiment: HCV replicon assay (luciferase reporter, ET cell line); format: cell-based; conditions: Hepatitis C virus, HCV replicon luciferase activity in ET cells
property_name: inhibition at 10 µM (%)
Report as a plain number; the unit % is understood.

[[record]]
molecule = "O=C(NCc1cccs1)c1cc2cc(-c3ccco3)cc(Cl)c2[nH]1 [Compound 105]"
property_name = "inhibition at 10 µM"
readout_value = 58.2

[[record]]
molecule = "O=C(NCc1cccc(C(F)(F)F)c1)c1nc2c(C(F)(F)F)cc(-c3ccco3)cn2c1Cl [Compound 180]"
property_name = "inhibition at 10 µM"
readout_value = 20.4

[[record]]
molecule = "CN(Cc1cccs1)C(=O)c1cn2cc(-c3ccco3)cc(C(F)(F)F)c2n1 [Compound 146]"
property_name = "inhibition at 10 µM"
readout_value = 35.1

[[record]]
molecule = "O=C(c1nc2c(C(F)(F)F)cc(-c3cn[nH]c3)cn2c1Br)N1CCC(c2nccs2)C1 (centres unmarked) [Compound 432]"
property_name = "inhibition at 10 µM"
readout_value = 96.5

[[record]]
molecule = "COC(=O)c1cc(C(F)(F)F)c2nc(C(=O)NCc3cccs3)c(Cl)n2c1 [Compound 312]"
property_name = "inhibition at 10 µM"
readout_value = 76.2

[[record]]
molecule = "O=C(NCc1ccsc1)c1nc2c(C(F)(F)F)cc(-c3ccco3)cn2c1Cl [Compound 173]"
property_name = "inhibition at 10 µM"
readout_value = 95.2


Enquiry: Requested field: inhibition at 10 µM. Item: COc1ccc(CNC(=O)c2nc3c(C(F)(F)F)cc(-c4ccco4)cn3c2Cl)cc1 [Compound 192]
Return: 73.9

Enquiry: // lookup inhibition at 10 µM for O=C(c1nc2c(C(F)(F)F)cc(-c3ccoc3)cn2c1Cl)N1CC=C(c2ccnc(F)c2)CC1 [Compound 587]
Return: 76.9

---

experiment: HCV replicon assay (luciferase reporter, ET cell line); assay type: cell-based; settings: Hepatitis C virus, HCV replicon luciferase activity in ET cells
Returns criterion met if the recorded inhibition at 10 µM is greater than or equal to 70%, and criterion not met otherwise.

[[record]]
compound = "O=C(Cc1cn2cc(-c3ccoc3)cc(C(F)(F)F)c2n1)NCc1cccs1 [Compound 650]"
group_label = "criterion not met"

[[record]]
compound = "O=C(c1nc2c(C(F)(F)F)cc(-c3ccoc3)cn2c1Cl)N1CC=C(c2cccc(F)c2)C1 [Compound 426]"
group_label = "criterion met"

[[record]]
compound = "O=C(c1nc2c(C(F)(F)F)cc(-c3ccoc3)cn2c1Cl)N1CC(NS(=O)(=O)C2CC2)C1 [Compound 498]"
group_label = "criterion met"

[[record]]
compound = "O=C(c1nc2c(C(F)(F)F)cc(-c3cccc(F)c3)cn2c1Br)N1CCC(c2ccccc2)C1 (centres unmarked) [Compound 368]"
group_label = "criterion met"

[[record]]
compound = "O=C(NCc1cccs1)c1nc2c(-c3ncon3)cc(-c3ccoc3)cn2c1Cl [Compound 374]"
group_label = "criterion not met"


Enquiry: Given C[C@H](CNC(=O)c1nc2c(C(F)(F)F)cc(-c3ccoc3)cn2c1Cl)c1ccccc1 [Compound 414] , state whether its inhibition at 10 µM is at least 70%.
Return: criterion met

Enquiry: Assess whether reported inhibition at 10 µM for O=C(c1nc2c(C(F)(F)F)cc(-c3ccoc3)cn2c1Cl)N1CCC(c2nccs2)C1 (centres unmarked) [Compound 430] sits at 70% or higher.
Return: criterion met

---

assay: HCV replicon assay (luciferase reporter, ET cell line); type: cell-based; details: Hepatitis C virus, HCV replicon luciferase activity in ET cells
property_name: inhibition at 10 µM (%)
Numbers only here, please. The scale is %.

Known inhibition at 10 µM results, listed for orientation:
[[record]]
molecule = "CC(C)c1cc(-c2ccccc2)cn2c(Br)c(C(=O)NCc3cccs3)nc12"
measurement_unit = "%"
readout_value = 87.1

[[record]]
molecule = "CN(C)CCNC(=O)[C@H]1[C@@H](c2ccccc2)CCN1C(=O)c1nc2c(C(F)(F)F)cc(-c3ccoc3)cn2c1Cl (stereo in doubt)"
measurement_unit = "%"
readout_value = 53.4

[[record]]
molecule = "N#CC1(c2ccccc2)CCN(C(=O)c2nc3c(C(F)(F)F)cc(-c4ccoc4)cn3c2Cl)CC1"
measurement_unit = "%"
readout_value = 98.3

[[record]]
molecule = "O=C(c1nc2c(C(F)(F)F)cc(-c3ccoc3)cn2c1Cl)N1CCC=C(c2ccccc2F)C1"
measurement_unit = "%"
readout_value = 96.9

[[record]]
molecule = "O=C(NCc1cccs1)c1nc2c(C(F)(F)F)cc(-c3ccccc3)cn2c1Cl"
measurement_unit = "%"
readout_value = 93.2


Enquiry: Could you share which inhibition at 10 µM value was measured for O=C(NCc1ccco1)c1nc2c(C(F)(F)F)cc(-c3ccco3)cn2c1Cl ?
Return: 88.5

Enquiry: Recorded inhibition at 10 µM for CN(C)c1cccc(-c2cc(C(F)(F)F)c3nc(C(=O)NCc4cccs4)c(Cl)n3c2)c1 , please?
Return: 57.9

---

test: HCV replicon assay (luciferase reporter, ET cell line); type: cell-based; details: Hepatitis C virus, HCV replicon luciferase activity in ET cells
Label Met for high-side inhibition at 10 µM (at or above 90%) and Not met for low-side inhibition at 10 µM (below it).

Consider the worked cases shown below.
[[record]]
compound = "O=C(NCc1cccs1)c1cn2cc(-c3cccc(F)c3)cc(C(F)(F)F)c2n1"
group_label = "Not met"

[[record]]
compound = "O=C(c1nc2c(C(F)(F)F)cc(-c3cn[nH]c3)cn2c1Br)N1CCC(c2cccc(F)c2)C1 (stereo not shown)"
group_label = "Met"

[[record]]
compound = "O=C(c1nc2c(C(F)(F)F)cc(-c3cn[nH]c3)cn2c1Br)N1CC=C(c2ccc(F)cc2)C1"
group_label = "Met"

[[record]]
compound = "O=C(NCc1cccs1)c1cn2nc(-c3ccccc3)cc(C(F)(F)F)c2n1"
group_label = "Not met"


Enquiry: Reported inhibition at 10 µM reaches at least 90% for O=C(c1nc2c(C(F)(F)F)cc(-c3ccco3)cn2c1Cl)N1CCC(O)(c2ccccc2)C1 (stereo not shown) ?
Return: Met

Enquiry: inhibition at 10 µM >= 90% for O=C(c1nc2c(C(F)(F)F)cc(-c3cn[nH]c3)cn2c1Cl)N1CC[C@@H](c2ccccc2)C1 ?
Return: Met

Enquiry: Tell me whether inhibition at 10 µM is at least 90% here: O=C(NCc1ccccn1)c1nc2c(C(F)(F)F)cc(-c3ccco3)cn2c1Cl
Return: Met

Enquiry: Answer whether inhibition at 10 µM of CC(=O)N[C@H]1CN(C(=O)c2nc3c(C(F)(F)F)cc(-c4ccoc4)cn3c2Cl)C[C@@H]1c1ccccc1 (stereo in doubt) is greater than or equal to 90%.
Return: Not met

Enquiry: Hello, I need to know if O=C(c1nc2c(C(F)(F)F)cc(-c3ccoc3)cn2c1Cl)N1CCC(c2cccc(F)c2)C1 (stereo not shown) has measured inhibition at 10 µM not below 90%. Thanks!
Return: Met

Enquiry: Check if inhibition at 10 µM >= 90% (inclusive). Item: O=C(c1nc2c(C(F)(F)F)cc(-c3cn[nH]c3)cn2c1Cl)N1CC=C(c2ncccc2F)C1
Return: Met

Enquiry: Entry O=C(c1nc2c(C(F)(F)F)cc(-c3ccoc3)cn2c1Br)N1CCC(c2ccccc2F)C1 (stereo not shown) : is its inhibition at 10 µM no less than 90%?
Return: Met

Enquiry: Reported inhibition at 10 µM at or above 90%? C#Cc1cc(C(F)(F)F)c2nc(C(=O)NCc3cccs3)c(Cl)n2c1
Return: Not met

Enquiry: Tell me whether inhibition at 10 µM is at least 90% here: COc1ccccc1CNC(=O)c1nc2c(C(F)(F)F)cc(-c3ccco3)cn2c1Cl
Return: Not met

Enquiry: Check this compound for inhibition at 10 µM at or above 90%: O=C(c1nc2c(C(F)(F)F)cc(-c3cn[nH]c3)cn2c1Br)N1CC=C(c2ccc(F)cc2)CC1
Return: Not met

Enquiry: Tell me whether inhibition at 10 µM is at least 90% here: O=C(NCc1cccs1)c1nc2c(C(F)(F)F)cc(-c3ccc(F)c(F)c3)cn2c1Cl
Return: Not met

Enquiry: Is the recorded value of inhibition at 10 µM equal to or greater than 90% for this compound? O=C(Cc1nc2c(C(F)(F)F)cc(-c3ccoc3)cn2c1Cl)N1CCC(c2cccc(F)c2)C1 (stereo not shown)
Return: Not met

Enquiry: Identify whether the reported inhibition at 10 µM of the following compound is 90% or greater: O=C(Nc1nc2c(C(F)(F)F)cc(-c3ccoc3)cn2c1Cl)c1cccs1
Return: Not met

Enquiry: Hi team, for CS(=O)(=O)NC1CN(C(=O)c2nc3c(C(F)(F)F)cc(-c4cn[nH]c4)cn3c2Cl)C1 , is the recorded inhibition at 10 µM at or above 90%?
Return: Not met

Enquiry: Assess whether reported inhibition at 10 µM for O=C(c1nc2c(C(F)(F)F)cc(-c3ccco3)cn2c1Cl)N1CCN(Cc2ccccc2)CC1 sits at 90% or higher.
Return: Not met

Enquiry: Decide: is the reported value of inhibition at 10 µM for O=C(NCc1cccs1)c1nc2c(C(F)(F)F)cc(-c3ccncc3)cn2c1Cl equal to or greater than 90%?
Return: Not met

Enquiry: Quick check, inhibition at 10 µM >= 90%? O=C(NCc1cccs1)c1nc2c(C(F)(F)F)cc(-c3cccc(F)c3)cn2c1Cl
Return: Met

Hey, just so you know, these numbers are from patent US20120121540A1.
